Test system: strychnine-induced seizures
Test: Strychnine-induced seizure model
Type: in vivo, mice
Settings: oral dose 1.0 mg/kg 60 min before strychnine 1.5 mg/kg s.c.; mean ± SD, N = 10
Recorded Latency to Tremor and Seizure Onset by entry
Provide only the numeric value, understood in min.

Known results for compounds:
[[record]]
compound = "COc1cc2c(cc1OC)C(c1ccc(Cl)cc1)NCC2 (stereo not shown)"
reading_unit = "min"
data_value = 18.5

[[record]]
compound = "COc1cc2c(cc1OC)C(c1ccc(N)cc1)NCC2 (stereo not shown)"
reading_unit = "min"
data_value = 15.5

[[record]]
compound = "COc1cc2c(cc1OC)C(c1ccccc1[N+](=O)[O-])NCC2 (stereo not shown)"
reading_unit = "min"
data_value = 14.2


Prompt: Please give the measured Latency to Tremor and Seizure Onset for this compound: COc1cc2c(cc1OC)C(c1ccccc1Cl)NCC2 (stereo not shown)
Completion: 17.2

Prompt: Same thing, different compound: COc1cc2c(cc1OC)C(c1ccccc1OC)NCC2 (stereo not shown)
Completion: 15.7

Prompt: Same lookup for COc1cc2c(cc1OC)C(c1ccc([N+](=O)[O-])cc1)NCC2 (stereo not shown) , please.
Completion: 13.5

Prompt: Check COc1cc(Br)c(C2NCCc3cc(OC)c(OC)cc32)cc1OC (stereo not shown) too.
Completion: 16.5

Prompt: Okay, and COc1cc2c(cc1OC)C(c1cc(OC)c(OC)cc1[N+](=O)[O-])NCC2 (stereo not shown) ?
Completion: 16.7

Prompt: COc1ccc(C2NCCc3cc(OC)c(OC)cc32)cc1OC (stereo not shown) , same question.
Completion: 12.7

Prompt: Okay, and COc1cc2c(cc1OC)C(c1cccc(Br)c1)NCC2 (stereo not shown) ?
Completion: 18.5

====

Tested on: strychnine-induced seizures
Assay: Strychnine-induced seizure model
Type: in vivo, mice
Details: oral dose 1.0 mg/kg 60 min before strychnine 1.5 mg/kg s.c.; mean ± SD, N = 10
observation_type: Duration of Tremor and Seizures (min)
Numeric only. Scale: min

Worked set:
[[record]]
compound = "COc1cc2c(cc1OC)C(c1cccc(Cl)c1)NCC2 (stereo not drawn) [Compound 11]"
target_of_assay = "strychnine-induced seizures"
observation_type = "Duration of Tremor and Seizures"
reading_unit = "min"
data_value = 0.46

[[record]]
compound = "COc1cc2c(cc1OC)C(c1cccc([N+](=O)[O-])c1)NCC2 (stereo not drawn) [Compound 8]"
target_of_assay = "strychnine-induced seizures"
observation_type = "Duration of Tremor and Seizures"
reading_unit = "min"
data_value = 0.56

[[record]]
compound = "COc1ccc(C2NCCc3cc(OC)c(OC)cc32)cc1O (stereo not drawn) [Compound 20]"
target_of_assay = "strychnine-induced seizures"
observation_type = "Duration of Tremor and Seizures"
reading_unit = "min"
data_value = 0.63

[[record]]
compound = "COc1cc2c(cc1OC)C(c1ccc3c(c1)OCO3)NCC2 (stereo not drawn) [Compound 29]"
target_of_assay = "strychnine-induced seizures"
observation_type = "Duration of Tremor and Seizures"
reading_unit = "min"
data_value = 0.32

[[record]]
compound = "COc1cc2c(cc1OC)C(c1ccc(N(C)C)cc1)NCC2 (stereo not drawn) [Compound 16]"
target_of_assay = "strychnine-induced seizures"
observation_type = "Duration of Tremor and Seizures"
reading_unit = "min"
data_value = 0.31


Prompt: Sample COc1ccc(C2NCCc3cc(OC)c(OC)cc32)cc1OC (stereo not drawn) [Compound 22] — what was its Duration of Tremor and Seizures?
Completion: 0.71
